// reported GI50 per item
test system: LoVo; test: Cytotoxicity against human doxorubicin resistant LoVo cells after 48 hrs by SRB assay; format: functional
Please reply with the bare figure in nM and do not write the unit itself.

| compoundString | unitsSymbol | GI50 |
| --- | --- | --- |
| C/C=C1\NC(=O)[C@H](Cc2ccc(F)cc2)NC(=O)[C@@H](C(C)C)NC(=O)[C@@H]([C@H](C)CC)NC(=O)[C@H](NC(=O)[C@H](NC(=O)[C@H](CCCN)NC(=O)[C@H]2CCCN2C(=O)[C@H](NC(=O)[C@@H](NC(=O)[C@@H](NC(=O)[C@H](NC(=O)CC[C@@H](C)CC)C(C)C)[C@@H](C)O)C(C)C)C(C)C)[C@H](C)CC)[C@H](C)OC(=O)[C@H](C(C)C)NC1=O | nM | 413 |
| CC[C@@H](C)[C@@H](NC(=O)[C@H](CCCN)NC(=O)[C@H]1CCCN1C(=O)[C@H](NC(=O)[C@@H](NC(=O)[C@@H](NC(=O)[C@H](NC(=O)CCCC(C)C)C(C)C)[C@@H](C)O)C(C)C)C(C)C)C(=O)N[C@H]1C(=O)N[C@H]([C@H](C)CC)C(=O)N[C@H](C(C)C)C(=O)N[C@@H](Cc2ccccc2)C(=O)N[C@H](CC)C(=O)N[C@@H](C(C)C)C(=O)O[C@H]1C | nM | 1760 |
| C/C=C1\NC(=O)[C@H](Cc2ccccc2)NC(=O)[C@@H](C(C)C)NC(=O)[C@@H]([C@H](C)CC)NC(=O)[C@H](NC(=O)[C@H](NC(=O)[C@H](CCCN)NC(=O)[C@H]2CCCN2C(=O)[C@H](NC(=O)[C@@H](NC(=O)[C@@H](NC(=O)[C@@H](CC2CCCCC2)NC(=O)CCCC(C)C)[C@@H](C)O)C(C)C)C(C)C)[C@H](C)CC)[C@H](C)OC(=O)[C@H](C(C)C)NC1=O | nM | 825 |
| C/C=C1\NC(=O)[C@H](Cc2ccccc2)NC(=O)[C@@H](C(C)C)NC(=O)[C@@H]([C@H](C)CC)NC(=O)[C@H](NC(=O)[C@H](NC(=O)[C@H](CCCN)NC(=O)[C@H]2CCCN2C(=O)[C@H](NC(=O)[C@@H](NC(=O)[C@@H](NC(=O)[C@H](NC(=O)CC[C@@H](C)[C@H]2CC[C@H]3[C@@H]4CC[C@@H]5C[C@H](OC(=O)C(F)(F)F)CC[C@]5(C)[C@H]4CC[C@]23C)C(C)C)[C@@H](C)O)C(C)C)C(C)C)[C@H](C)CC)[C@H](C)OC(=O)[C@H](C(C)C)NC1=O | nM | 227 |

Tested system LoVo; GI50 recorded for `C/C=C1\NC(=O)[C@H](Cc2ccccc2)NC(=O)[C@@H](C(C)C)NC(=O)[C@@H]([C@H](C)CC)NC(=O)[C@H](NC(=O)[C@H](NC(=O)[C@H](CCCN)NC(=O)[C@H]2CCCN2C(=O)[C@H](NC(=O)[C@@H](NC(=O)[C@@H](NC(=O)[C@H](NC(=O)CCCC(C)C)C(C)C)[C@@H](C)O)C(C)C)C(C)C)[C@H](C)CC)COC(=O)[C@H](C(C)C)NC1=O` was 353

* * *

system: PANC-1; experiment: Cytotoxicity against human PANC1 cells after 48 hrs by SRB assay; assay type: functional; conditions: PANC-1, 48 h
propertyLabel: TGI (nM)
Please reply with the bare figure in nM and do not write the unit itself.

| compoundString | propertyLabel | unitsSymbol | endpointResult |
| --- | --- | --- | --- |
| C/C=C1\NC(=O)[C@H](Cc2ccccc2)NC(=O)[C@@H](C(C)C)NC(=O)[C@@H]([C@H](C)CC)NC(=O)[C@H](NC(=O)[C@H](NC(=O)[C@H](CCCNC(=O)CCCC[C@@H]2SC[C@@H]3NC(=O)N[C@@H]32)NC(=O)[C@H]2CCCN2C(=O)[C@H](NC(=O)[C@@H](NC(=O)[C@@H](NC(=O)[C@H](NC(=O)CCCC(C)C)C(C)C)[C@@H](C)O)C(C)C)C(C)C)[C@H](C)CC)[C@H](C)OC(=O)[C@H](C(C)C)NC1=O | TGI | nM | 2360 |

Record summary for `C/C=C1\NC(=O)[C@H](Cc2ccc(F)c(F)c2)NC(=O)[C@@H](C(C)C)NC(=O)[C@@H]([C@H](C)CC)NC(=O)[C@H](NC(=O)[C@H](NC(=O)[C@H](CCCN)NC(=O)[C@H]2CCCN2C(=O)[C@H](NC(=O)[C@@H](NC(=O)[C@@H](NC(=O)[C@H](NC(=O)CCCC(C)C)C(C)C)[C@@H](C)O)C(C)C)C(C)C)[C@H](C)CC)[C@H](C)OC(=O)[C@H](C(C)C)NC1=O` : reported TGI = 979
